{"columns": ["COMPOUND", "melting point"],
 "data": [
  ["CCOc1cc2c(N3CCN(C(=O)Nc4ccc(C#N)cc4)CC3)ncnc2cc1OC [Compound 347]", "178 to 179 °C"],
  ["COc1cc2ncnc(N3CCN(C(=S)NC(c4ccccc4)c4ccccc4)CC3)c2cc1OC [Compound 133]", "128 to 129 °C"],
  ["COc1cc2ncnc(N3CCN(C(=O)Nc4ccc(-n5cccc5)nc4)CC3)c2cc1OC [Compound 283]", "252 to 254 °C"],
  ["COc1cc2ncnc(N3CCN(C(=O)NCc4ccc(Br)cc4)CC3)c2cc1OC [Compound 184]", "211 to 212 °C"],
  ["CCCCn1c(=O)n(CCCC)c2cc3c(N4CCN(C(=O)Nc5ccc(Oc6ccccc6)cc5)CC4)ncnc3cc21 [Compound 390]", "134 to 136 °C"],
  ["COc1cc2ncnc(N3CCN(C(=S)Nc4cccc(Cl)c4)CC3)c2cc1OC [Compound 175]", "222 to 224 °C"]
]}

---

Reported melting point values are given for each entry in this list.
QUANTITY NAME: melting point

{"columns": ["STRUCTURE NOTATION", "VALUE OBSERVED"],
 "data": [
  ["Cn1c(=O)n(C)c2cc3c(N4CCN(C(=O)Nc5ccc([N+](=O)[O-])cc5)CC4)ncnc3cc21", "299 to 300 °C"],
  ["COc1cc2ncnc(N3CCN(C(=S)Nc4ccncc4)CC3)c2cc1OC", "218 to 220 °C"],
  ["CCOc1ccc(NC(=O)N2CCN(c3ncnc4cc(OC)c(OC)cc34)CC2)cc1", "165 to 166 °C"],
  ["COc1cc2ncnc(N3CCN(C(=S)NCc4cccc(F)c4)CC3)c2cc1OC", "100 to 102 °C"],
  ["COc1cc2ncnc(N3CCN(C(=O)N(c4ccccc4)c4ccccc4)CC3)c2cc1OC", "196 to 197 °C"],
  ["O=C(Nc1ccc(Oc2ccccc2)cc1)N1CCN(c2ccnc3c(C(F)(F)F)cccc23)CC1", "214 to 215 °C"],
  ["CCn1c(=O)n(C)c2cc3c(N4CCN(C(=S)NCc5ccccc5)CC4)ncnc3cc21", "207 to 208 °C"],
  ["Cc1ccc2ncnc(N3CCN(C(=O)Nc4ccc([N+](=O)[O-])cc4)CC3)c2c1", "126 to 129 °C"],
  ["COc1cc2ncnc(N3CCN(C(=S)N[C@@H](C)c4ccccc4)CC3)c2cc1OC", "98 to 100 °C"],
  ["O=C(Nc1ccc(Oc2ccccc2)cc1)N1CCN(c2ncnc3cc([N+](=O)[O-])ccc23)CC1", "146 to 148 °C"]
]}

---

Reported melting point values are given for each entry in this list.

{"columns": ["MOLECULE", "melting point"],
 "data": [
  ["COc1cc2ncnc(N3CCN(C(=S)NC4CCOC4=O)CC3)c2cc1OC (stereo not shown) [Compound 279]", "147 to 148 °C"],
  ["COc1cc2ncnc(N3CCN(C(=S)NC(=O)c4ccco4)CC3)c2cc1OC [Compound 95]", "187 to 189 °C"],
  ["COc1cc2ncnc(N3CCN(C(=S)Nc4ccc(Br)c(C)c4)CC3)c2cc1OC [Compound 191]", "160 to 161 °C"],
  ["COc1cc2ncnc(N3CCN(C(=S)Nc4ccc(OCc5ccccc5)cc4)CC3)c2cc1OC [Compound 63]", "103 to 105 °C"],
  ["C#CCNC(=S)N1CCN(c2ncnc3cc(OC)c(OC)cc23)CC1 [Compound 16]", "158 to 160 °C"],
  ["COc1cc2ncnc(N3CCN(C(=S)NCc4ccc(C#N)cc4)CC3)c2cc1OC [Compound 240]", "186 to 187 °C"],
  ["Cc1ccc2c(N3CCN(C(=S)NCc4ccccc4)CC3)ncnc2c1 [Compound 314]", "177 to 178 °C"]
]}

---

Reported melting point values are given for each entry in this list.

{"columns": ["STRUCTURE NOTATION", "melting point"],
 "data": [
  ["S=C(NCc1cccnc1)N1CCN(c2ncnc3cc4c(cc23)OCCO4)CC1", "110 to 113 °C"],
  ["Cc1cccc2ncnc(N3CCN(C(=S)NCc4ccccc4)CC3)c12", "165 to 167 °C"],
  ["COc1cc2nc(Cl)nc(N3CCN(C(=O)Nc4ccc(Oc5ccccc5)cc4)CC3)c2cc1OC", "178 to 179 °C"],
  ["COc1cc2c(N3CCN(C(=O)Nc4ccc(Oc5ccccc5)cc4)CC3)ncnc2cc1OC(C)C", "157 to 160 °C"],
  ["COc1cc2ncnc(N3CCN(C(=O)Nc4cccc(C(C)C)c4)CC3)c2cc1OC", "196 to 197 °C"],
  ["CCn1c(=O)n(CC)c2cc3c(N4CCN(C(=O)Nc5ccc(Oc6ccccc6)cc5)CC4)nnc(Cl)c3cc21", "172 to 173 °C"],
  ["Fc1cc2ncnc(N3CCN(C(=S)NCc4ccccc4)CC3)c2cc1F", "119 to 120 °C"],
  ["O=C(Nc1ccc(Oc2ccccc2)cc1)N1CCN(c2ncnc3cc4c(cc23)OCO4)CC1", "206 to 207 °C"],
  ["COc1cc2ncnc(N3CCN(C(=O)Nc4cc(C(F)(F)F)cc(C(F)(F)F)c4)CC3)c2cc1OC", "251 to 252 °C"],
  ["CCn1nnc2cc3c(N4CCN(C(=O)Nc5ccc(Oc6ccccc6)cc5)CC4)ncnc3cc21", "167 to 168 °C"],
  ["CCOc1cc2ncnc(N3CCN(C(=S)NCc4cccnc4)CC3)c2cc1OC", "169 to 170 °C"],
  ["COc1cc2ncnc(N3CCN(C(=O)Nc4ccc(Cl)cc4)CC3)c2cc1OC", "217 to 219 °C"],
  ["COc1cc2ncnc(N3CCN(C(=O)Nc4cccc(C)c4)CC3)c2cc1OC", "218 to 219 °C"],
  ["COc1cc2ncnc(N3CCN(C(=O)NC4CCCCC4)CC3)c2cc1OC", "208 to 210 °C"],
  ["COc1cc2ncnc(N3CCN(C(=O)Nc4ccc(N(C)C)cc4)CC3)c2cc1OC", "252 to 254 °C"],
  ["COc1cc2ncnc(N3CCN(C(=S)Nc4ccc(CNC(=O)OC(C)(C)C)cc4)CC3)c2cc1OC", "123 to 126 °C"],
  ["COc1cc2ncnc(N3CCN(C(=S)Nc4ccc(C#N)cc4)CC3)c2cc1OC", "247 to 252 °C"],
  ["COc1cccc2c(N3CCN(C(=O)Nc4ccc(C(C)C)cc4)CC3)ncnc12", "102 to 104 °C"],
  ["CCCC(=O)c1ccc(NC(=S)N2CCN(c3ncnc4cc(OC)c(OC)cc34)CC2)cc1", "218 to 219 °C"],
  ["CCOC(=O)c1cnc2cc(OC)c(OC)cc2c1N1CCN(C(=S)NCc2ccccc2)CC1", "174 to 175 °C"],
  ["CCOc1cc2ncnc(N3CCN(C(=O)Nc4ccc(Oc5ccccc5)cc4)CC3)c2cc1F", "197 to 198 °C"],
  ["COc1cc2ncnc(N3CCN(C(=O)Nc4ccc(CNCc5ccncc5)cc4)CC3)c2cc1OC.Cl.Cl.Cl", "182 to 185 °C"],
  ["COc1cc2ncnc(N3CCN(C(=O)Nc4cccc([N+](=O)[O-])c4)CC3)c2cc1OC", "123 to 125 °C"],
  ["COc1cc2ncnc(N3CCN(C(=O)Nc4ccc(C)c(C)c4)CC3)c2cc1OC", "202 to 203 °C"],
  ["COc1cc(NC(=S)N2CCN(c3ncnc4cc(OC)c(OC)cc34)CC2)cc(OC)c1", "240 to 241 °C"],
  ["COc1cc2ncnc(N3CCN(C(=O)Nc4ccc(C(C)=O)cc4)CC3)c2cc1OC", "220 to 222 °C"],
  ["CC(=O)c1ccc(NC(=O)N2CCN(c3ncnc4ccc(Cl)cc34)CC2)cc1", "207 to 208 °C"]
]}

---

Reported melting point values are given for each entry in this list.
QUANTITY NAME: melting point

{"columns": ["COMPOUND", "VALUE OBSERVED"],
 "data": [
  ["COc1cc2ncnc(N3CCN(C(=O)N[C@@H](C)c4ccccc4)CC3)c2cc1OC [Compound 127]", "191 to 192 °C"],
  ["COc1cc2ncnc(N3CCN(C(=S)Nc4ccccc4[N+](=O)[O-])CC3)c2cc1OC [Compound 78]", "177 to 178 °C"],
  ["COc1cc2ncnc(N3CCN(C(=O)Nc4ccc(C#N)nc4)CC3)c2cc1OC [Compound 273]", "275 to 277 °C"],
  ["COc1cc2ncnc(N3CCN(C(=O)Nc4ccc(OC(C)=O)cc4)CC3)c2cc1OC [Compound 216]", "197 to 199 °C"],
  ["COc1cc2ncnc(N3CCN(C(=S)NCC(=O)c4ccccc4)CC3)c2cc1OC [Compound 445]", "99 to 100 °C"],
  ["COc1cc2ncnc(N3CCN(C(=S)Nc4ccc(C(C)(C)C)cc4)CC3)c2cc1OC [Compound 22]", "221 to 224 °C"]
]}
